MEASURED_TARGET: recombinant human alpha 1D adrenergic receptor (ADR1D) (Homo sapiens, UniProt P25100)
Sequence (P25100 1-572): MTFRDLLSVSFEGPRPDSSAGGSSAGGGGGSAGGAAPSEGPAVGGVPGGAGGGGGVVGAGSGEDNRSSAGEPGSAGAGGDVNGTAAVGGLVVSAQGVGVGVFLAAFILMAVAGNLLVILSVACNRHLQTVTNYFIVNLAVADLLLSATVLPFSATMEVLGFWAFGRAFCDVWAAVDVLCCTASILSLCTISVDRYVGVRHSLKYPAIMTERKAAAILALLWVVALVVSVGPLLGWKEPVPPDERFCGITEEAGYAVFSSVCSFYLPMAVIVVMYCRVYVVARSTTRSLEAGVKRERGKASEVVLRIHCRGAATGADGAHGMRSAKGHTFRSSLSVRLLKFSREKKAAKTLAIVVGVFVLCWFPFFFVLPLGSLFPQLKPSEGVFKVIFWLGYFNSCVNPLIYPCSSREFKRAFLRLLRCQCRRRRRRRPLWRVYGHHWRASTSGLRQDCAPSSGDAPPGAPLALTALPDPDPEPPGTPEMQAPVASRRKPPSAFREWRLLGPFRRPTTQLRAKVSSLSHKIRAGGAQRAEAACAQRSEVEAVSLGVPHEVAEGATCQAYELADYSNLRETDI
ASSAY_OVERVIEW: biochemical
pKi: −log10 of the molar value. Counter-ions that a name gives are not always drawn.

[
  {
    "COMPOUND": "CCOc1ccccc1OCCN[C@H](C)Cc1ccc(OC)c(S(N)(=O)=O)c1 [tamsulosin, monohydrochloride]",
    "pKi": "> 9.00"
  }
]

From: patent US20230372302A1
